Where these numbers come from: ChEMBL document CHEMBL5149987

Target: WD repeat-containing protein 5 (Homo sapiens)
Test: Displacement of N-(4'-((17-(5,5-difluoro-7-(1H-pyrrol-2-yl)-5H-5l4,6l4-dipyrrolo[1,2-c:2',1'-f][1,3,2]diazaborinin-3-yl)-15-oxo-4,7,10-trioxa-14-azaheptadecyl)carbamoyl)-4-(4-methylpiperazin-1-yl)-[1,1'-biphenyl]-3-yl)-6-hydroxy-4-(trifluoromethyl)nicotinamide tracer from N-/C-terminal NanoLuc-fused full-length WDR5 (unknown origin) transfected in HEK293T cells incubated for 2 hrs by NanoBRET assay
Format: cell-based
endpoint: IC50

{"smilesRepr": "COc1cc(C(=O)NCCOCCNC(=O)c2ccc(-c3ccc(N4CCN(C)CC4)c(NC(=O)c4c[nH]c(=O)cc4C(F)(F)F)c3)cc2)ccc1NC(=O)[C@@H]1N[C@@H](CC(C)(C)C)[C@](C#N)(c2ccc(Cl)cc2F)[C@H]1c1cccc(Cl)c1F", "IC50": "≥ 50 µM"}

query: Consider the compound shown here: Cc1ncsc1-c1ccc(CNC(=O)[C@@H]2C[C@@H](O)CN2C(=O)[C@@H](NC(=O)CCOCCOCCOCCOCCOc2cc(-c3cn4c(n3)CCC4)ccc2CNC(=O)Cc2ccc(Cl)c(Cl)c2)C(C)(C)C)cc1 What is its recorded IC50?
result: ≥ 50 µM
